The reported measurements were obtained from the supplement of paper PMC11246515.

experiment: total protein half-life in vivo (active degradation + dilution); higher = more stable protein
test.settings: wild type E. coli NCM3722; growth: N-lim chemostat; doubling time 6 h
The reader will find reported total protein half-life in vivo values listed item by item below.

Example entries and their recorded answers appear below.
| monomer.sequence | total protein half-life in vivo |
| --- | --- |
| MRVLLAPMEGVLDSLVRELLTEVNDYDLCITEFVRVVDQLLPVKVFHRICPELQNASRTPSGTLVRVQLLGQFPQWLAENAARAVELGSWGVDLNCGCPSKTVNGSGGGATLLKDPELIYQGAKAMREAVPAHLPVSVKVRLGWDSGEKKFEIADAVQQAGATELVVHGRTKEQGYRAEHIDWQAIGDIRQRLNIPVIANGEIWDWQSAQQCMAISGCDAVMIGRGALNIPNLSRVVKYNEPRMPWPEVVALLQKYTRLEKQGDTGLYHVARIKQWLSYLRKEYDEATELFQHVRVLNNSPDIARAIQAIDIEKL | 5.2 h |
| MNKETQPIDRETLLKEANKIIREHEDTLAGIEATGVTQRNGVLVFTGDYFLDEQGLPTAKSTAVFNMFKHLAHVLSEKYHLVD [P0AB61] | 2.5 h |
| MRKIALILAMLLIPCVSFAGLLGSSSSTTPVSKEYKQQLMGSPVYIQIFKEERTLDLYVKMGEQYQLLDSYKICKYSGGLGPKQRQGDFKSPEGFYSVQRNQLKPDSRYYKAINIGFPNAYDRAHGYEGKYLMIHGDCVSIGCYAMTNQGIDEIFQFVTGALVFGQPSVQVSIYPFRMTDANMKRHKYSNFKDFWEQLKPGYDYFEQTRKPPTVSVVNGRYVVSKPLSHEVVQPQLASNYTLPEAK [P0AA99] | 0.909 h |

[in] Identify total protein half-life in vivo associated with the sequence MATDSTQCVKKSRGRPKVFDRDAALDKAMKLFWQHGYEATSLADLVEATGAKAPTLYAEFTNKEGLFRAVLDRYIDRFAAKHEAQLFCEEKSVESALADYFAAIANCFTSKDTPAGCFMINNCTTLSPDSGDIANTLKSRHAMQERTLQQFLCQRQARGEIPPHCDVTHLAEFLNCIIQGMSISAREGASLEKLMQIAGTTLRLWPELVK
[out] 1.78 h
